B1: PTPRD (parent)
chain: MVHVARLLLLLLTFFLRTDAETPP

# Variants of: B1
# ASSAY_OVERVIEW: protein stability index of a GFP-peptide fusion (GPS, HEK-293T) (PSI 1-6); higher = more stable;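 further: lentivirally expressed fusions sorted by FACS into six bins by GFP to DsRed ratio, PSI derived from sequencing read proportions per bin multiplied by bin number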
# REPORTED_CONDITIONS: c terminus: a fixed tail appended
Field: class. Source value: protein stability index. Ranges: low = under 2, medium = from 2 up to 3, high = 3 and over

[ask] Which bin, given its protein stability index, does V4S occupy?
[reply] medium

[ask] Please indicate the class for R6Q based on its protein stability index.
[reply] high

[ask] The entry to classify is L12E ; which class holds it?
[reply] medium

[ask] Bin? L7P
[reply] low

[ask] Would you mind sorting L11M into the appropriate category?
[reply] high

[ask] Please let me know in which category the item M1K belongs.
[reply] medium

[ask] Which protein stability index band matches M1H ?
[reply] low

[ask] Consider R6M . To which protein stability index class does it belong?
[reply] low

[ask] For F15M , which protein stability index bin applies?
[reply] medium

[ask] Determine which band this variant sits in: L10Y
[reply] low

[ask] Please indicate the class for E21M based on its protein stability index.
[reply] high

[ask] Could you tell me which band M1E belongs to?
[reply] medium

[ask] Kindly identify the class of F15L .
[reply] medium

[ask] // bin(item) where item = L11F
[reply] medium

[ask] Classify this variant: H3M
[reply] medium

[ask] Please indicate the class for H3D based on its protein stability index.
[reply] medium

[ask] Class label required: L12G
[reply] medium

[ask] Could you tell me which band F14Y belongs to?
[reply] low

[ask] Hey, which category is R17V in, do you know?
[reply] medium

[ask] Assign a bin to V4R
[reply] medium

[ask] Any idea which band L16P is in?
[reply] medium

[ask] Hi, small favor: classify L8Q by its protein stability index when you get a moment.
[reply] medium

[ask] Into which category would you place V2G ?
[reply] low

[ask] Hello team, could you let me know which band the following variant falls into: L16Q
[reply] low

[ask] Band for the recorded protein stability index of F14D ?
[reply] low

[ask] Exam item: assign L12Y to the correct category.
[reply] high

[ask] Please report the category associated with L16K , nothing else.
[reply] low

[ask] Returns: class label. Input: H3L
[reply] medium

[ask] // bin(item) where item = P23Q
[reply] high

[ask] Hey, which category is L8I in, do you know?
[reply] medium

[ask] Would you mind sorting V2P into the appropriate category?
[reply] low

[ask] Please report the category associated with L16T , nothing else.
[reply] medium

[ask] Category lookup for the variant L9T
[reply] high

[ask] Looking at R6H , which class would you pick?
[reply] high

[ask] Lab log: P24N — assign protein stability index category
[reply] low

[ask] Which bin, given its protein stability index, does A5Q occupy?
[reply] medium

[ask] Into which bin does this variant go? L16A
[reply] low

[ask] Field: class (protein stability index) — entry: P24A
[reply] high

[ask] Which band does A5R fall in?
[reply] low

[ask] Which category fits this record: L11P
[reply] high

[ask] Any idea which band L12P is in?
[reply] medium

[ask] Kindly identify the class of R17D .
[reply] medium

[ask] Exercise: read the entry A5W and state which class it falls under.
[reply] medium

[ask] Dear colleague, I would appreciate it if you could identify the bin for T18R and reply at your convenience.
[reply] high

[ask] Any idea which band V2C is in?
[reply] medium

[ask] Bin? V2A
[reply] medium

[ask] For this variant, which bin applies? L11E
[reply] low

[ask] Which category fits this record: V2H
[reply] medium

[ask] In plain terms, what class is R6C ?
[reply] medium

[ask] Field: class (protein stability index) — entry: A5H
[reply] high

[ask] Which bin should I file A5Y under?
[reply] medium

[ask] Category lookup for the variant P24D
[reply] medium

[ask] Kindly state the category for this variant: L7E
[reply] low

[ask] Record V2M — which class?
[reply] medium

[ask] Into which bin does this variant go? R6K
[reply] low

[ask] In plain terms, what class is E21Y ?
[reply] medium

[ask] Assign a bin to L7G
[reply] high

[ask] Category lookup for the variant L9R
[reply] low

[ask] For this variant, which bin applies? V4M
[reply] low

[ask] Please classify: L12K
[reply] medium

[ask] GET /class?item= V2N
[reply] low

[ask] Band assignment needed for F14C please.
[reply] low

[ask] Which of the defined bands does the recorded protein stability index of L11I sit within?
[reply] medium

[ask] Form: Item = L10F ; Class = ?
[reply] medium

[ask] Each variant maps to one class by protein stability index. Which class for V2Q ?
[reply] low

[ask] Class? Entry: L10D
[reply] low

[ask] Determine which band this variant sits in: T18M
[reply] medium

[ask] Band for the recorded protein stability index of L7Y ?
[reply] medium

[ask] # classify by protein stability index band: L7R
[reply] medium

[ask] Form field 'band' for D19I
[reply] medium

[ask] Kindly identify the class of E21L .
[reply] medium

[ask] Could you tell me which band R17L belongs to?
[reply] medium

[ask] Note: place this variant into its band. Item: T13P
[reply] medium

[ask] Entry L12C belongs to which category?
[reply] high

[ask] Please report the category associated with F15W , nothing else.
[reply] medium

[ask] Which class holds L12H ?
[reply] low

[ask] Could you tell me which band T18G belongs to?
[reply] medium

[ask] Which band does L9M fall in?
[reply] low

[ask] Class? Entry: M1Q
[reply] medium

[ask] Bin? P24S
[reply] high

// data source = the supplement of paper PMC10567573
